# TARGET_OF_ASSAY: kappa opioid receptor (PathHunter U2OS hOPRK1 membranes) (Homo sapiens, UniProt P41145)
# Construct: host or cells: U2OS (PathHunter U2OS hOPRK1 β-arrestin cell line)
# Sequence (P41145 whole entry): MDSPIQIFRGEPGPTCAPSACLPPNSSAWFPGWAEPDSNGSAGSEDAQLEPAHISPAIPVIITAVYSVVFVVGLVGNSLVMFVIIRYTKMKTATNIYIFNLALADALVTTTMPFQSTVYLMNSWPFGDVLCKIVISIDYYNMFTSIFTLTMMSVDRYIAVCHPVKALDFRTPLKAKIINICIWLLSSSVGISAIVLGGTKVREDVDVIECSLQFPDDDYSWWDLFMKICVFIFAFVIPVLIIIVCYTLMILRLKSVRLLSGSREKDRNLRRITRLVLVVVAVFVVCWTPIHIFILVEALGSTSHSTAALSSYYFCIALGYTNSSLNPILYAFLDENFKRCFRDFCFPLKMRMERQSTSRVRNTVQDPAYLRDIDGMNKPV
# EXPERIMENT_SUMMARY: Tritiated U69,593 binding for KOP-R membranes
# Experimental: Tritiated U69,593 binding for KOP-R membranes; tritiated DAMGO binding for MOP-R membranes; and tritiated DPDPE binding for DOP-R membranes: Membranes from cells stably expressing kappa, mu or delta opioid receptor constructs (PathHunter U2OS hOPRK1, CHO-K1 rOPRM1 and CHO-K1 OPRD1 β-arrestin cell line, DiscoverX, Fremont, Calif., USA) were used. […] Chemiluminescence was measured using a Synergy Neo microplate reader (BioTek, Winooski, Vt., USA). […]
MEASURED_PROPERTY: log10 of IC50 (log10 of the value in nM)
Transform log10 | Measure IC50 | Unit nM

[Q] For the molecule O=C(Cc1ccc(Cl)c(Cl)c1)N1CCN[C@@H]2COC[C@H](N3CCCC3)[C@H]21 (racemic) , report log10 of IC50.
[A] 1.81

[Q] For the molecule O=C(Cc1ccc(Cl)c(Cl)c1)N1CCN(S(=O)(=O)C2CC2)[C@@H]2COC[C@H](N3CCCC3)[C@H]21 (single isomer, unassigned) [Example 5A52A] , report log10 of IC50.
[A] 0.56

[Q] For the molecule CCCN1CCN(C(=O)Cc2ccc(Cl)c(Cl)c2)[C@H]2[C@H]1COC[C@@H]2N1CCCC1 (racemic) , report log10 of IC50.
[A] 1.41

[Q] For the molecule O=C(Cc1ccc(Cl)c(Cl)c1)N1CCN(S(=O)(=O)C2CC2)[C@@H]2COC[C@H](N3CCCC3)[C@H]21 (racemic) [Example 5A52] , report log10 of IC50.
[A] 0.71

[Q] For the molecule O=C(Cc1ccc(Cl)c(Cl)c1)N1CCN(Cc2ccccc2)[C@@H]2COC[C@H](N3CCCC3)[C@H]21 (single isomer, unassigned) [Example 5A53A] , report log10 of IC50.
[A] 2.03

[Q] For the molecule COC(=O)N1CCN(C(=O)Cc2ccc(Cl)c(Cl)c2)[C@H]2[C@H]1COC[C@@H]2N1CCCC1 (racemic) , report log10 of IC50.
[A] 1.61

[Q] For the molecule O=C(Cc1ccc(Cl)c(C(F)(F)F)c1)N1CCN[C@@H]2COC[C@H](N3CCCC3)[C@H]21 (racemic) , report log10 of IC50.
[A] 1.18

[Q] For the molecule CS(=O)(=O)N1CCN(C(=O)Cc2ccc(Cl)c(Cl)c2)[C@H]2[C@H]1COC[C@@H]2N1CCCC1 (single isomer, unassigned) [Example 5A44A] , report log10 of IC50.
[A] 0.73

[Q] For the molecule O=C(Cc1ccc(Cl)c(Cl)c1)N1CCN(S(=O)(=O)C2CC2)[C@H]2COC[C@@H](N3CCCC3)[C@@H]21 (single isomer, unassigned) [Example 5A52B] , report log10 of IC50.
[A] 1.43

[Q] For the molecule O=C(Cc1ccc(Cl)c(Cl)c1)N1CCN(Cc2ccccc2)[C@H]2COC[C@@H](N3CCCC3)[C@@H]21 (single isomer, unassigned) [Example 5A53B] , report log10 of IC50.
[A] 1.64

[Q] For the molecule CC(C)CN1CCN(C(=O)Cc2ccc(Cl)c(Cl)c2)[C@H]2[C@H]1COC[C@@H]2N1CCCC1 , report log10 of IC50.
[A] 1.43

[Q] For the molecule Cc1ccc(CC(=O)N2CCN[C@@H]3COC[C@H](N4CCCC4)[C@H]32)cc1C(F)(F)F (racemic) , report log10 of IC50.
[A] 1.49
